Readings of growth inhibition for the listed compounds
Assay: NCI Yeast Anticancer Drug Screen. Data for the sgs1 mgt1 strain (AID 161);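 also: 0% = growth of cultures given vehicle only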
Settings: S. cerevisiae sgs1 mgt1 strain, at 50.0 µM, stronger effect = higher value
The panel holds about 79,000 compounds, 15% with a hit somewhere; the sample as a whole holds those more often.
Unit % implied. Number only.

COc1ccc(Oc2cc3c(cc2OC)CCN(C)C3)cc1
20.1
C[CH2][Pb]([Br])([CH2]C)[CH2]C
-5.85
C[P+]1(C)CCCCC1
0.35
O=C([O-])c1ccccc1[SH2+].[Cr+3].[NH-]CC[NH-].[NH-]CC[NH-].[O-][Cl+3]([O-])([O-])O
-11.8
CCCCC[As](=O)(O)O
1.2

Look up growth inhibition: `Cc1ccc(OP(=O)(Oc2ccc(C)cc2)Oc2ccc(C)cc2)cc1.Cc1ccc(OP(=O)(Oc2ccc(C)cc2)Oc2ccc(C)cc2)cc1.Cc1ccc(OP(=O)(Oc2ccc(C)cc2)Oc2ccc(C)cc2)cc1.Cc1ccc(OP(=O)(Oc2ccc(C)cc2)Oc2ccc(C)cc2)cc1.[Cr+3].[O-][Cl+3]([O-])([O-])O`
0.15

// next record `CN(C)C(=O)O/N=C(\c1ccccc1)C(F)(F)F`
20.5

// next record C=C[Se](=C(C#N)C#N)c1ccccc1 (stereo not given)
5.75

Same lookup for `COc1cc(C2(C)CCCCC2)c(OC)cc1C1(C)CCCCC1` , please.
23.4

For NC1CC2NC3CCCCC3NC2CC1N (stereo not given) then?
-0.6
